assay: Half life in rat liver microsomes at 1 uM measured up to 1 hr by LC-MS/MS analysis; type: ADME, Microsome

structure as smiles | half-life at 1 µM
COc1cc(C(=O)NC2CCNCC2)ccc1Nc1nc(Nc2ccccc2P(C)(C)=O)c2cc[nH]c2n1 | > 2.42 h

###

pIC50 reference
tested on: HK-2; test: cells; settings: Homo sapiens, HK-2, 72 h
Description: Cytotoxicity against human HK2 cells assessed as reduction in cell viability after 72 hrs by MTT assay
pIC50: −log10 of the molar value.

structure as smiles | subject of test | reported relation | pIC50
COc1cc(C(=O)NC2CCNCC2)ccc1Nc1nc(Nc2ccccc2P(C)(C)=O)c2cc[nH]c2n1 | HK-2 | < | 4.60
CNC(=O)c1ccc(Nc2nc(Nc3ccccc3P(C)(C)=O)c3cc[nH]c3n2)cc1 | HK-2 | = | 5.04
CP(C)(=O)c1ccccc1Nc1nc(Nc2ccc(C(=O)N[C@H]3CCCNC3)cc2)nc2[nH]ccc12 | HK-2 | < | 4.60
CP(C)(=O)c1ccccc1Nc1nc(Nc2ccc(C(=O)N3CCNCC3)cc2)nc2[nH]ccc12 | HK-2 | < | 4.60
CP(C)(=O)c1ccccc1Nc1nc(Nc2cnn(C3CCNCC3)c2)nc2[nH]ccc12 | HK-2 | < | 4.60
CCNS(=O)(=O)c1ccc(Nc2nc(Nc3ccccc3P(C)(C)=O)c3cc[nH]c3n2)cc1 | HK-2 | = | 5.32
CNC(=O)c1ccccc1Nc1nc(Nc2ccc(N3CCOCC3)cc2OC)ncc1Cl | HK-2 | = | 5.09
COc1cc(C(=O)NC2CCNCC2)c(F)cc1Nc1nc(Nc2ccccc2P(C)(C)=O)c2cc[nH]c2n1 | HK-2 | < | 4.60
CP(C)(=O)c1ccccc1Nc1nc(Nc2ccc(C(=O)NC3CCOCC3)cc2)nc2[nH]ccc12 | HK-2 | = | 5.01
COCCn1cc(Nc2nc(Nc3ccccc3P(C)(C)=O)c3cc[nH]c3n2)cn1 | HK-2 | < | 4.60
CP(C)(=O)c1ccccc1Nc1nc(Nc2ccc(N3CCNCC3)cc2)nc2[nH]ccc12 | HK-2 | = | 5.08
CP(C)(=O)c1ccccc1Nc1nc(Nc2cnn(C3CCOCC3)c2)nc2[nH]ccc12 | HK-2 | = | 4.84
CP(C)(=O)c1ccccc1Nc1nc(Nc2ccc(C(=O)NC3CCNCC3)c(F)c2)nc2[nH]ccc12 | HK-2 | = | 4.66
CP(C)(=O)c1ccccc1Nc1nc(Nc2ccc(C(=O)N3CCOCC3)cc2)nc2[nH]ccc12 | HK-2 | = | 5.05
CP(C)(=O)c1ccccc1Nc1nc(Nc2cnn(CC(F)F)c2)nc2[nH]ccc12 | HK-2 | = | 5.36
CP(C)(=O)c1ccccc1Nc1nc(Nc2ccc(C(=O)NC3CCNCC3)cc2)nc2[nH]ccc12 | HK-2 | < | 4.60

###

test: Metabolic stability in mouse liver microsomes assessed as compound remaining at 1 uM measured up to 1 hr in absence of NADPH by LC-MS/MS analysis; type: ADME, Microsome; conditions: read-out: Stability
reported property: remaining at 1 h, 1 µM (%)

structure as smiles | reported property | unit string | reported measurement
COc1cc(C(=O)NC2CCNCC2)ccc1Nc1nc(Nc2ccccc2P(C)(C)=O)c2cc[nH]c2n1 | remaining at 1 h, 1 µM | % | 78

###

biological target: CYP1A2 (Homo sapiens, UniProt P05177); assay: Inhibition of CYP1A2 in human pooled liver microsomes at 10 uM using phenacetin as substrate preincubated for 10 mins followed by NADPH addition and measured after 15 mins by LC/MS/MS analysis relative to control; format: ADME; settings: probe phenacetin
Sequence (P05177 whole entry): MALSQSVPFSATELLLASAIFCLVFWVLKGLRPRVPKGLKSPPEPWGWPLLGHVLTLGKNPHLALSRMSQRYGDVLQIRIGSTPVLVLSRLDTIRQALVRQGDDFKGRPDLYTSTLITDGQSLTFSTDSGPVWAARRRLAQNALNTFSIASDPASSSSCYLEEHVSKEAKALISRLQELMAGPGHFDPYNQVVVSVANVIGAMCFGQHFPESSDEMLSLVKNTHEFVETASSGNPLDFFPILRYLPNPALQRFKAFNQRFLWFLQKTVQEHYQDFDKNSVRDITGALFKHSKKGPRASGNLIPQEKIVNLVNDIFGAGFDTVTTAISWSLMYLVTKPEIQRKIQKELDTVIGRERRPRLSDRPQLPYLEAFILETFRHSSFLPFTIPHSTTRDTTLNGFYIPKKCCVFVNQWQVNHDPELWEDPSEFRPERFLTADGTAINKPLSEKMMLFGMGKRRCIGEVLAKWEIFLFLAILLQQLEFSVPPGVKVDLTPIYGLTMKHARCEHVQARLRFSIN
reported property: inhibition at 0.25 h, 10 µM

structure as smiles | reported measurement
COc1cc(C(=O)NC2CCNCC2)ccc1Nc1nc(Nc2ccccc2P(C)(C)=O)c2cc[nH]c2n1 | 1.5%
